Where these numbers come from: the kinase profiling compilation of Christmann-Franck et al. (2016)

TESTED TARGET: MARK4 (human) (UniProt Q96L34)
Sequence (Q96L34 whole entry, looked up): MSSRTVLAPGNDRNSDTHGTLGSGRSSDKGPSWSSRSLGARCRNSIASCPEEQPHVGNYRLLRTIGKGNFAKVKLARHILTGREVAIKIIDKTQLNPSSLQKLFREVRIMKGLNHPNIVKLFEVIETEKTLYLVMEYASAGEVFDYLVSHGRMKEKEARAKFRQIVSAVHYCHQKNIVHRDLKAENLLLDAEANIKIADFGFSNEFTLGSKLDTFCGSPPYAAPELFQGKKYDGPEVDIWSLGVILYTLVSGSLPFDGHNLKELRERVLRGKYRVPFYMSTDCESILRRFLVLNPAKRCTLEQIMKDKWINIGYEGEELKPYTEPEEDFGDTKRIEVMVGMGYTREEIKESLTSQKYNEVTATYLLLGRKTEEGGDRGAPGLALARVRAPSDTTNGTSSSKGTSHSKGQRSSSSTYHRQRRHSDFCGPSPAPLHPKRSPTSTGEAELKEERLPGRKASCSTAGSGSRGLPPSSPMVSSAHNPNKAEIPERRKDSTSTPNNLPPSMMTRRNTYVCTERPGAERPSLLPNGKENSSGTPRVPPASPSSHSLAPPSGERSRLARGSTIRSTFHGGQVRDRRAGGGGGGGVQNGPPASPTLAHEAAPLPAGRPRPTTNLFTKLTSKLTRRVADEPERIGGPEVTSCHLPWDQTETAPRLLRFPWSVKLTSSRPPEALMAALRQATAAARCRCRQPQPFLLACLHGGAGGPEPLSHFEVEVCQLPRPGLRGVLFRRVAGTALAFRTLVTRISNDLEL
PROTOCOL DETAILS: radiometric filter-binding kinase assay
ASSAY CONTEXT: compound 10.0 µM
READOUT TYPE: residual activity (%)

Sample records with residual activity:
COMPOUND	UNIT ABBREVIATION	residual activity
O=C(NOCC(O)CO)c1ccc(F)c(F)c1Nc1ccc(I)cc1Cl (stereo not given)	%	108
CCNc1nc(Nc2cc(F)c(C(=O)N3CCOCC3)cc2OC)ncc1C(F)(F)F	%	67
CCOC(=O)c1ccc(N2NC(=O)/C(=C/c3ccc([N+](=O)[O-])o3)C2=O)cc1	%	52

P: O=C(O)c1cc(N=Nc2ccc(S(=O)(=O)Nc3ccccn3)cc2)ccc1O
Q: NC(=O)c1cc(-c2ccnc(NC3CCCCC3)c2)nc(N2CCNCC2)c1
Please indicate which item has the smaller measured residual activity: P versus Q Give the label under which the chosen entry appears.
Q
(Q: 10%, P: 89%)

---

TESTED TARGET: MAPK9 (human) (UniProt P45984)
Sequence (P45984 whole entry, looked up): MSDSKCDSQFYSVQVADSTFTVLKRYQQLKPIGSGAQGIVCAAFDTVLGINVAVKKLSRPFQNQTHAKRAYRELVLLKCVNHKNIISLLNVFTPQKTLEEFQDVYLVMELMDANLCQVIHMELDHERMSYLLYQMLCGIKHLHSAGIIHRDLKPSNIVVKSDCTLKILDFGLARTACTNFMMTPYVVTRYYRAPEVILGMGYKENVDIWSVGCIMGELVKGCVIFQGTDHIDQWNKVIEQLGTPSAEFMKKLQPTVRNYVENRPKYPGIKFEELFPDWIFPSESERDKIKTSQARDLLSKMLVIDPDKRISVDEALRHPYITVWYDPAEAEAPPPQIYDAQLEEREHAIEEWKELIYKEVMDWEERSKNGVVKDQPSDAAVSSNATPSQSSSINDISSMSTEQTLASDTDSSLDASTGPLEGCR
PROTOCOL DETAILS: radiometric filter-binding kinase assay
ASSAY CONTEXT: compound 0.1 µM
READOUT TYPE: residual activity (%)

COMPOUND	UNIT ABBREVIATION	RECORDED MEASUREMENT
Cc1ccc(-c2ccc3c(ccc4sc5c(c43)NC[C@@H](C)NC5=O)n2)cn1	%	123
Cc1cccc(-c2nn(C(=S)Nc3ccccc3)cc2-c2ccnc3ccccc23)n1	%	105
C/C(=C1/C(=O)Nc2ccc(NC(N)=O)cc21)c1ccc[nH]1	%	118
O=C(N[C@@H](COc1ccc2[nH]c(=O)[nH]c2c1)c1ccccc1)c1cccn(Cc2ccc(F)c(F)c2)c1=O	%	93
COc1cc(O)c2c(c1)/C=C/C[C@H](O)[C@H](O)C(=O)/C=C\C[C@H](C)OC2=O	%	109
c1ccc2c(-c3cnn4cc(-c5ccc(N6CCNCC6)cc5)cnc34)ccnc2c1	%	88
CC1=C(CO)C(=O)O[C@@H]([C@@H](C)[C@H]2CC[C@H]3[C@@H]4C[C@H]5O[C@]56[C@@H](O)C=CC(=O)[C@]6(C)C4CC[C@]23C)C1 (stereo partly drawn)	%	112
Cn1c(=O)c2c(ncn2C)n(C)c1=O	%	94

---

TESTED TARGET: SIK3 (human) (UniProt Q9Y2K2)
Sequence (Q9Y2K2 whole entry, looked up): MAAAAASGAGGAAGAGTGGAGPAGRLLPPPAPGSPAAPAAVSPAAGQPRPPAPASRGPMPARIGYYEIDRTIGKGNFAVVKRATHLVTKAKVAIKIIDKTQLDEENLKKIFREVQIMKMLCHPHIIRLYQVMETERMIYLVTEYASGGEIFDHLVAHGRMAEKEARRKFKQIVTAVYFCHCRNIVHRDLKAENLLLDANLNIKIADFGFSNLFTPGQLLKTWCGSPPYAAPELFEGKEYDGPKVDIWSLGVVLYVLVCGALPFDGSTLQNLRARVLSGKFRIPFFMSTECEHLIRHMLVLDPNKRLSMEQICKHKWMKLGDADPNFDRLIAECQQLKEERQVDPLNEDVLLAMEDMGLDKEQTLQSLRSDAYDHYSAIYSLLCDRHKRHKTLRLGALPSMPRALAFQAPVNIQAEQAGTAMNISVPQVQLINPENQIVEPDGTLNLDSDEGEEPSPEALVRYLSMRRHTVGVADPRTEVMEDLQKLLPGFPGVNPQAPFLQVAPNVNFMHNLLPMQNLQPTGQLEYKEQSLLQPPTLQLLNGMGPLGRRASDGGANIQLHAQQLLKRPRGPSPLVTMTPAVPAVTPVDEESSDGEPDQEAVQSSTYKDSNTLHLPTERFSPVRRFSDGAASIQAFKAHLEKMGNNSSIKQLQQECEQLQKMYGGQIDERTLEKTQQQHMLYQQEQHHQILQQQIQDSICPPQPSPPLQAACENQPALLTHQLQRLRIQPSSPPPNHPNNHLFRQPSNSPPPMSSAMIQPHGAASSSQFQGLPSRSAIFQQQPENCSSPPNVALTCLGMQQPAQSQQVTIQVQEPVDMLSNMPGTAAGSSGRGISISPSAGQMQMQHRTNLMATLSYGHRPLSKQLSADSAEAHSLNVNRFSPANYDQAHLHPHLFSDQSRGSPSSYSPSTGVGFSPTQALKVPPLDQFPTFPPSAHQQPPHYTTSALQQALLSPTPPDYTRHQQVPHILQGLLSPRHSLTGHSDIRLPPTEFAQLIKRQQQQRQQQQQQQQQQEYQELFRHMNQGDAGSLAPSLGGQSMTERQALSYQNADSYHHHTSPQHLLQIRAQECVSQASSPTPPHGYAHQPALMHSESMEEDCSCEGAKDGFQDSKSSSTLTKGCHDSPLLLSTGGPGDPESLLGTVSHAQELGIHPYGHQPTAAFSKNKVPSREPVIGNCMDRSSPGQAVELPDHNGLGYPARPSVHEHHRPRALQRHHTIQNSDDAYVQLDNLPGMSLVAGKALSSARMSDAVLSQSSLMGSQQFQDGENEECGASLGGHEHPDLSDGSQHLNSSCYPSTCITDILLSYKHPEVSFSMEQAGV
PROTOCOL DETAILS: radiometric filter-binding kinase assay
ASSAY CONTEXT: compound 0.1 µM
READOUT TYPE: residual activity (%)

The examples below pair each entry with its known result.
COMPOUND	residual activity [%]
CN(C)C/C=C/C(=O)Nc1cccc(C(=O)Nc2ccc(Nc3nccc(-c4cccnc4)n3)cc2)c1	81
CC1=C(CO)C(=O)O[C@@H]([C@@H](C)[C@H]2CC[C@H]3[C@@H]4C[C@H]5O[C@]56[C@@H](O)C=CC(=O)[C@]6(C)C4CC[C@]23C)C1 (stereo partly drawn)	105

I: CN1CCN(CCOc2cc(OC3CCOCC3)c3c(Nc4c(Cl)ccc5c4OCO5)ncnc3c2)CC1
II: CNC(=O)C1[C@H]2O[C@@](C)([C@@H]1N)n1c3ccccc3c3c4c(c5c6ccccc6n2c5c31)C(=O)NC4 (stereo partly drawn)
Pick one, I or II : lowest reported residual activity. Please indicate the selected item by its label.
II
